test system: P12-Ichikawa; test: cell viability relative to DMSO control; higher = less cytotoxic; details: RPMI 5 mM glucose + 10% dialyzed FBS; 48 h; 0.0211 µM
Below, each entry is listed alongside its reported cell viability.

>  <Compound>
CCC[S+](=O)([O-])Nc1ccc(F)c(C(=O)c2c[nH]c3ncc(Cl)cc23)c1F

>  <cell viability [%]>
118

$$$$
>  <Compound>
C=C1C(=O)OC(CCCCCCCC)C1C(=O)O (stereo not drawn)

>  <cell viability [%]>
129

$$$$
>  <Compound>
CC(NC(C)(C)C)C(=O)c1cccc(Cl)c1 (stereo not drawn)

>  <cell viability [%]>
123

$$$$
>  <Compound>
C[C@H]1C[C@H]2[C@@H]3CC[C@](O)(C(=O)CO)[C@@]3(C)C[C@H](O)[C@@H]2[C@@]\4(C)/C=C\C(=O)\C=C14

>  <cell viability [%]>
93.5

$$$$
>  <Compound>
CC(=O)N[C@@H]1[C@@H](NC(N)=N)\C=C(/O[C@H]1[C@H](O)[C@H](O)CO)C(O)=O

>  <cell viability [%]>
109

$$$$
>  <Compound>
CN1CCN(c2c(F)cc3c(=O)c(C(=O)O)cn(CCF)c3c2F)CC1

>  <cell viability [%]>
107

$$$$
>  <Compound>
Cc1c(-c2cccc3c(CCCOc4cccc5ccccc45)c(C(=O)O)n(Cc4cccnc4)c23)c(COc2ccc(N3CCN([S+](=O)([O-])N(C)C)CC3)cc2)nn1C

>  <cell viability [%]>
95.3

$$$$
>  <Compound>
CC[N+](CC)(CC)CCOc1cccc(OCC[N+](CC)(CC)CC)c1OCC[N+](CC)(CC)CC

>  <cell viability [%]>
109

$$$$
>  <Compound>
CC(C)N(C[C@H]1O[C@@H](n2cnc3c(N)ncnc32)[C@H](O)[C@@H]1O)[C@H]1C[C@@H](CCc2nc3cc(C(C)(C)C)ccc3[nH]2)C1

>  <cell viability [%]>
104

$$$$
>  <Compound>
CC1(CN2CCC(n3c(=O)[nH]c4ccccc43)CC2)OCc2ccccc2-n2cccc21 (stereo not drawn)

>  <cell viability [%]>
97.2

$$$$
>  <Compound>
O=C(Nc1c[nH]nc1-c1nc2cc(CN3CCOCC3)ccc2[nH]1)NC1CC1

>  <cell viability [%]>
102

$$$$
>  <Compound>
N\C1=N\C2=C(N=C[N]2COCCO)C(=O)N1

>  <cell viability [%]>
98.2

$$$$
>  <Compound>
C[C@H](CCC(=O)O)[C@H]1CCC2C3C[C@H](O)[C@@H]4C[C@H](O)CC[C@]4(C)C3CC[C@@]21C (stereo partly drawn)

>  <cell viability [%]>
103

$$$$
>  <Compound>
C[C@]12Cc3cn[nH]c3C[C@@H]1CC[C@@H]1[C@@H]2CC[C@@]2(C)[C@H]1CC[C@]2(C)O

>  <cell viability [%]>
97.2

$$$$
>  <Compound>
CC(C)(S)[C@@H](N)C(=O)O

>  <cell viability [%]>
115

$$$$
>  <Compound>
O=C(Nc1nnc(-c2ccco2)o1)c1cc(-c2ccccc2)nc2ccccc12

>  <cell viability [%]>
94.2

$$$$
>  <Compound>
O=C(CCCCCCC(=O)Nc1cccnc1)NO

>  <cell viability [%]>
91.9

$$$$
>  <Compound>
COc1cc([C@@H](CC(=O)O)c2ccc(C)c(CN3C[C@@H](C)Oc4ccccc4[S+]3(=O)[O-])c2)cc2nnn(C)c12

>  <cell viability [%]>
125

$$$$
